- Test Target: von Willebrand factor (VWF) (Homo sapiens, UniProt P04275 P04275:764-2813)
- Experimental Details: filter; Bmax 85%; 2 mM CaCl2, 37 C
- Condition Context: tags: factor VIII free human purified VWF, Haematologic Technologies Inc; label: 5'-32P
Reported Metric: Kd (nM)
One number for each entry, in nM.

Some binders with known Kd results, for comparison:
- Binder: "ACGAACUGCCCUCUUUCAUGACGCACAGACGU (ssRNA, 2'-F C2,U7,C9,C10,C11,U12,C22,C24,C30,U32; ribo A1,G3,G8,A21,G23,A25,G31; rest 2'-OMe; 3' idT) [T87 vrt1]"
  Kd / nM: 1.5
- Binder: "ACGAACUGCCCUCGUUUCAUCGACGCACAGACGU (ssRNA, 2'-F C9,C10,C11,C24,G25,C26,U34; rest 2'-OMe; 3' idT) [T86 vrt6]"
  Kd / nM: 52
- Binder: "ACGAACUGCCCUCGAUCGACGCACAGACGU (ssRNA, 2'-F U7,C9,C10,C11,U12,C20,C22,U30; ribo A23; rest 2'-OMe; 3' idT) [T59 vrt21]"
  Kd / nM: 27

I need Kd for every entry listed below, if you could help.
1. ACGAACUGCCCUCUAUUAUUUGACGCACAGACGU (ssRNA, 2'-F C9,C10,C11,C24,C26; ribo G25; rest 2'-OMe; 3' idT) [T90 vrt4]
2. ACGAACUGCCCUCGUAUUAUUUCGACGCACAGACGU (ssRNA, 2'-F C9,C10,C11,C26,C28; ribo G27; rest 2'-OMe; 3' idT) [T89 vrt4]

OUTPUT:
1: 10.2; 2: 8.4
